Entries annotated with measured pKi
Assay System: bCA IV (Bos taurus)
Sequence (Q95323 19-284): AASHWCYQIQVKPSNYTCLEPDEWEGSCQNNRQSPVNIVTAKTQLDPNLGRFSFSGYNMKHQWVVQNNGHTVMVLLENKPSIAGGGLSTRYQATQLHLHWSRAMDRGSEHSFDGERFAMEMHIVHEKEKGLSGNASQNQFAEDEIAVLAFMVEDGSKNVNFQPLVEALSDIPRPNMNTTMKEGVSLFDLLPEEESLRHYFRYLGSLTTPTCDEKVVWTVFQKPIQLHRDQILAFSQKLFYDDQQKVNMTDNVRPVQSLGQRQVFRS
Protocol Text: CA inhibition, esterase method (4-nitrophenylacetate hydrolysis)
// pKi is dimensionless: -log10 of concentration (M)

Recorded results for 2 compounds are shown here.
NS(=O)(=O)c1ccc(CNC(=S)NCc2ccccn2)cc1 = 7.13
N=C(N)NCCCC(NC(=S)NCc1ccc(S(N)(=O)=O)cc1)C(=O)O (stereo not drawn) = 7.25

# input for lookup
Q: Look up and state reported pKi for `NS(=O)(=O)c1ccc(CNC(=S)NCC(=O)NCC(=O)O)cc1`
Ans: 7.59

Sourced from patent EP1421935A1
